Test: Clearance in Sprague-Dawley rat at 1 mg/kg, iv
Assay type: ADME, organism-based
Parameters: dose 1 mg/kg, route intravenous
Settings: in vivo
endpointLabel: clearance
Write the figure, then the unit, nothing else.

Q. State its clearance: Cc1nn(CC(F)(F)CO)c(-c2ccc(F)cc2)c1-c1ccc2c(c1)NC(=O)CO2
A. 0.99 L/h/kg

---

Target: Mineralocorticoid receptor (Homo sapiens)
Test: biochemical
Description: Displacement of [3H]aldosterone from human mineralocorticoid receptor expressed in 293 cells after 16 hrs by scintillation counting
endpointLabel: pIC50
Give bare numbers, as −log10 of the molar value.

Use these answered entries as a reference point.
Q. Identify pIC50 associated with the compound Cc1nn(CCCC(F)(F)F)c(-c2ccc(F)cc2)c1-c1ccc2c(c1)NC(=O)CO2
A. 8.08

Q. Give the reported pIC50 for this compound. Cc1nn(CCC(F)(F)CO)c(-c2ccc(F)cc2)c1-c1ccc2c(c1)NC(=O)CO2
A. 7.02

Q. Input Cc1nn(CCCO)c(-c2ccc(F)cc2)c1-c1ccc2c(c1)NC(=O)CO2 , output reported pIC50.
A. 6.36

Continuing:
Q. Specify pIC50 for Cc1nn(Cc2cccnc2)c(-c2ccc(F)cc2)c1-c1ccc2c(c1)NC(=O)CO2 and stop.
A. 7.44

---

Assay: Metabolic stability in rat hepatic microsomes at 1 umol/L pre-incubated fro 5 mins at 37 degC before addition of NADPH-generating system by UV detection based HPLC method
Format: ADME
Settings: liver microsomes, read-out: CLH
Assign microsomal CLint at 1 µM to each entry below.

Q. For the compound Cc1nn(CC(F)(F)CO)c(-c2ccc(F)cc2)c1-c1ccc2c(c1)NC(=O)CO2 , give its reported microsomal CLint at 1 µM.
A. > 42 µL/min/mg

Next:
Q. Read the entry Cc1nn(Cc2cccnc2)c(-c2ccc(F)cc2)c1-c1ccc2c(c1)NC(=O)CO2 and write its reported microsomal CLint at 1 µM.
A. > 200 µL/min/mg

---

Test: Oral bioavailability in Sprague-Dawley rat at 3 mg/kg
Type: ADME, organism-based
Conditions: in vivo
endpointLabel: bioavailability (%)
One number for each entry, in %.

Q. # return recorded bioavailability for input Cc1nn(CC(F)(F)CO)c(-c2ccc(F)cc2)c1-c1ccc2c(c1)NC(=O)CO2
A. 21.4

---

Molecular target: Mineralocorticoid receptor (Homo sapiens)
Sequence (P08235 whole entry): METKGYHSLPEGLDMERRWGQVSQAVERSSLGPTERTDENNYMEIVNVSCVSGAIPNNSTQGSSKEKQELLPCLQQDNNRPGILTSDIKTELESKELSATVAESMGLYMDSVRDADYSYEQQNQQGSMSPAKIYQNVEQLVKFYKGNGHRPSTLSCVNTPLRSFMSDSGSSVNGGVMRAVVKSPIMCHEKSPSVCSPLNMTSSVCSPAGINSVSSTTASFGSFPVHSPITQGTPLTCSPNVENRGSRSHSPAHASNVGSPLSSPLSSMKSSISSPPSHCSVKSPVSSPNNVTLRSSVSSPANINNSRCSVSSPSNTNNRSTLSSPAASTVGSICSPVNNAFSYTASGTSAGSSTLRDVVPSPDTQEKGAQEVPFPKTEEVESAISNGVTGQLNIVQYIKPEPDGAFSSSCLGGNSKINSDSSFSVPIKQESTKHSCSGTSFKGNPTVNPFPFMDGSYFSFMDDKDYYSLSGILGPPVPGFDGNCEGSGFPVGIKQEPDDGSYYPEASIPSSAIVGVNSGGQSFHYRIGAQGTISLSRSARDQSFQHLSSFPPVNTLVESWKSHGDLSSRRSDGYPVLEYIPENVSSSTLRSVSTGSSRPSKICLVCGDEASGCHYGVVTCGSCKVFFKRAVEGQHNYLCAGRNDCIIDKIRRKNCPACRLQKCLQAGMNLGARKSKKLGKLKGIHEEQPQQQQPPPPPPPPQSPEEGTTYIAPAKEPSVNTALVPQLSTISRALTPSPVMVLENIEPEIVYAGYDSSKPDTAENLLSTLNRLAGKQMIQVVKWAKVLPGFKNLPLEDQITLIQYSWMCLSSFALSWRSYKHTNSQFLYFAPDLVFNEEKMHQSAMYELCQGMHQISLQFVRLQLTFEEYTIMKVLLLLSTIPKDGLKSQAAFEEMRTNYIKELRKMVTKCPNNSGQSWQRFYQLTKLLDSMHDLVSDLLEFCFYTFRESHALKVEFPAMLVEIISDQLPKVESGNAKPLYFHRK
endpointLabel: IC50 (µM)
One number for each entry, in µM.

Here are 2 molecules together with their reported answers.
Q. Output IC50 of Cc1nn(C)c(-c2ccc(F)cc2)c1-c1ccc2c(c1)NC(=O)CO2
A. 0.16

Q. Indicate its recorded IC50; the molecule in question is Cc1nn(Cc2ccccc2)c(-c2ccc(F)cc2)c1-c1ccc2c(c1)NC(=O)CO2
A. 0.064

State the recorded IC50 for every item in the following list.
1. Cc1nn(CC(F)(F)CO)c(-c2ccc(F)cc2)c1-c1ccc2c(c1)NC(=O)CO2
2. Cc1nn(C)c(-c2ccc(F)cc2F)c1-c1ccc2c(c1)NC(=O)CO2
3. Cc1nn(Cc2ccccn2)c(-c2ccc(F)cc2)c1-c1ccc2c(c1)NC(=O)CO2

A.
0.071
0.6
0.99

---

Lab note: pIC50 readings collected with Mineralocorticoid receptor (Homo sapiens, UniProt P08235) for the following compounds.
One number for each entry, as −log10 of the molar value.

Example results:
Q. Read the entry Cn1ncc(-c2ccc3c(c2)NC(=O)CO3)c1-c1ccc(F)cc1 and write its reported pIC50.
A. 6.77

Q. Give reported pIC50 value for Cc1nn(Cc2ccncc2)c(-c2ccc(F)cc2)c1-c1ccc2c(c1)NC(=O)CO2
A. 6.37

Q. Quote pIC50 reported for Cc1nn(CCC#N)c(-c2ccc(F)cc2)c1-c1ccc2c(c1)NC(=O)CO2 please.
A. 6.31

Q. Indicate its recorded pIC50; the compound in question is Cc1nn(CCC(F)(F)CO)c(-c2ccc(F)cc2)c1-c1ccc2c(c1)NC(=O)CO2
A. 6.74

Please turn your attention to the following entry.
Q. Consider the compound Cc1nn(Cc2cccnc2)c(-c2ccc(F)cc2)c1-c1ccc2c(c1)NC(=O)CO2 . State its measured pIC50.
A. 7.44

---

Assay: Lipophilicity, log D of the compound at pH 7.4 by HPLC analysis
Assay type: physicochemical
Settings: buffer
Record form. Attribute: logD. Fill in for each entry.
Give bare numbers.

Known results for compounds:
Q. Please report logD for the following compound: Cc1nn(CCCO)c(-c2ccc(F)cc2)c1-c1ccc2c(c1)NC(=O)CO2
A. 1.99

Q. Tell me its logD given Cc1nn(CC(F)(F)CO)c(-c2ccc(F)cc2)c1-c1ccc2c(c1)NC(=O)CO2 as the entry.
A. 2.05

Q. State its logD: Cc1nn(C)c(-c2ccc(F)cc2)c1-c1ccc2c(c1)NC(=O)CO2
A. 2.51

Q. Identify the reported logD for the following entry. Cc1nn(CCC#N)c(-c2ccc(F)cc2)c1-c1ccc2c(c1)NC(=O)CO2
A. 1.89

Q. For the compound Cc1nn(Cc2ccccn2)c(-c2ccc(F)cc2)c1-c1ccc2c(c1)NC(=O)CO2 , give its measured logD value.
A. 2.45

Q. Specify measured logD for Cc1nn(CCC(F)(F)CO)c(-c2ccc(F)cc2)c1-c1ccc2c(c1)NC(=O)CO2 .
A. 2.34

Q. Let me know recorded logD for Cc1nn(CCCCO)c(-c2ccc(F)cc2)c1-c1ccc2c(c1)NC(=O)CO2 , thanks.
A. 2.16

Q. Find the measured logD of Cc1nn(Cc2cccnc2)c(-c2ccc(F)cc2)c1-c1ccc2c(c1)NC(=O)CO2 and report it.
A. 2.22

Q. Tell me its logD given Cc1nn(CC(F)(F)CCO)c(-c2ccc(F)cc2)c1-c1ccc2c(c1)NC(=O)CO2 as the entry.
A. 2.11

Q. Input Cc1nn(CCNS(C)(=O)=O)c(-c2ccc(F)cc2)c1-c1ccc2c(c1)NC(=O)CO2 , output reported logD.
A. 1.7

Switching to the query record.
Q. # return recorded logD for entry Cc1nn(Cc2ccncc2)c(-c2ccc(F)cc2)c1-c1ccc2c(c1)NC(=O)CO2
A. 2.2

---

Target: Mineralocorticoid receptor (Homo sapiens, UniProt P08235)
Binning of IC50 into classes: zone 1: < 50 nM; zone 2: ≥ 50 nM and < 700 nM; zone 3: ≥ 700 nM

Q. Place this compound in its band: Cc1cc(-c2c(C)nn(C)c2-c2ccc(F)cc2)cc2c1OCC(=O)N2
A. zone 2

Q. // bin(item) where item = Cc1onc(-c2ccc3c(c2)NC(=O)CO3)c1-c1ccc(F)cc1
A. zone 3

Q. Class (by measured IC50) for CCCCn1nc(C)c(-c2ccc3c(c2)NC(=O)CO3)c1-c1ccc(F)cc1
A. zone 1

Q. // return the class label for Cc1nn(CCCCO)c(-c2ccc(F)cc2)c1-c1ccc2c(c1)NC(=O)CO2
A. zone 2

Q. Class label required: Cc1nn(CC(F)(F)CCO)c(-c2ccc(F)cc2)c1-c1ccc2c(c1)NC(=O)CO2
A. zone 2

Q. Form field 'band' for CCn1nc(C)c(-c2ccc3c(c2)NC(=O)CO3)c1-c1ccc(F)cc1
A. zone 3

---
Q. Exam item: assign Cc1nn(CCC(C)(F)F)c(-c2ccc(F)cc2)c1-c1ccc2c(c1)NC(=O)CO2 to the correct category.
A. zone 1

Q. Bin? CCCn1nc(C)c(-c2ccc3c(c2)NC(=O)CO3)c1-c1ccc(F)cc1
A. zone 2

Q. Hello team, could you let me know which band the following compound falls into: Cc1nn(CCCC(F)(F)F)c(-c2ccc(F)cc2)c1-c1ccc2c(c1)NC(=O)CO2
A. zone 1

Q. Looking at Cc1nn(CCNS(C)(=O)=O)c(-c2ccc(F)cc2)c1-c1ccc2c(c1)NC(=O)CO2 , which class would you pick?
A. zone 3
